Numbers sourced from the supplement of paper PMC10567573.

B1: KRT13 (parent)
chain: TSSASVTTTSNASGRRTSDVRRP

- Variants of: B1
- protocolDetails: protein stability index of a GFP-peptide fusion (GPS, HEK-293T) (PSI 1-6); higher = more stable;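 note: lentivirally expressed fusions sorted by FACS into six bins by GFP to DsRed ratio, PSI derived from sequencing read proportions per bin multiplied by bin number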
- recordedConditions: c terminus: native
quantityKind: protein stability index
Lab note: jot the number down without any unit.

R16I    2.33
R22I    2.77
S18P    2.02
R22V    2.08
T17S    2.16

Lookup: I would be grateful if you could share the reported protein stability index for T1Q .
Found: 2.54

Lookup: I would be grateful if you could share the reported protein stability index for S2F .
Found: 2.04

Lookup: I would be grateful if you could share the reported protein stability index for R15T .
Found: 1.94

Lookup: I would be grateful if you could share the reported protein stability index for R22K .
Found: 2.13

Lookup: I would be grateful if you could share the reported protein stability index for R16K .
Found: 1.59

Lookup: I would be grateful if you could share the reported protein stability index for G14M .
Found: 3.29
